Data provenance: patent US12281155

# measured_target: T1, recombinant SARS-CoV-2 Spike RBD domain, XBB.1.16 variant (SARS-CoV-2)
# T1 construct: also called RBD XBB.1.16 variant
# assay: ELISA on coated RBD
value_kind: Binding AUC
Output spec: single numeric token, no unit.

Could you share which Binding AUC value was measured for SPK002M C1 antibody (antibody, human IgG1, kappa, V domains shown) VH: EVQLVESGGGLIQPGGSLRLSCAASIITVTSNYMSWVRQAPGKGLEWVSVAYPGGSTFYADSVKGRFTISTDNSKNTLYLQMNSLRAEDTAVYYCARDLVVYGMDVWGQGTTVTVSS VL: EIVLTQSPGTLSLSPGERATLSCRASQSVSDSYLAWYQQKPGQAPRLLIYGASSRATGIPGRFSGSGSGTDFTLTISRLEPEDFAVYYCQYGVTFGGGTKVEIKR ?
29

Given the entry SPK002M A2 antibody (antibody, human IgG1, kappa, V domains shown) VH: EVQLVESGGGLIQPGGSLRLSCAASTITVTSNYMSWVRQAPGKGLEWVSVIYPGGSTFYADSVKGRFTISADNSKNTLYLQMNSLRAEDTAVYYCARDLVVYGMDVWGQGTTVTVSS VL: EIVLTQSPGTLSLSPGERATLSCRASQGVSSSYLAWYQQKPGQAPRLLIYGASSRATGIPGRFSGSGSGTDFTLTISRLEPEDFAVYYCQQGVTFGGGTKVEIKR , report its measured Binding AUC.
31

Given SPK002M B1 antibody (antibody, human IgG1, kappa, V domains shown) VH: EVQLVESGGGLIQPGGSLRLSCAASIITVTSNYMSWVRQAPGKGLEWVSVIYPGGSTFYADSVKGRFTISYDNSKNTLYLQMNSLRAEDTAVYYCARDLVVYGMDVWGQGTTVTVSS VL: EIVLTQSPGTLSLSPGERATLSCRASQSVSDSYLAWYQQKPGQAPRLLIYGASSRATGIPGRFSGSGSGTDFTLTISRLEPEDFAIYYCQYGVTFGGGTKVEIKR , state its recorded Binding AUC.
30

Which Binding AUC value belongs to SPK002M B2 antibody (antibody, human IgG1, kappa, V domains shown) VH: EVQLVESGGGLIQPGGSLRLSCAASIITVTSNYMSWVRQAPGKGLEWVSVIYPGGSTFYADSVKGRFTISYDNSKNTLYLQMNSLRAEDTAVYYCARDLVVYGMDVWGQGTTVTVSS VL: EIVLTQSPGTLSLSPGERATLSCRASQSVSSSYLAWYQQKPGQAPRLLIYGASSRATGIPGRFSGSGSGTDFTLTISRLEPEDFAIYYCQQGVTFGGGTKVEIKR ?
30

Look up Binding AUC for this binder: SPK002M A5 antibody (antibody, human IgG1, kappa, V domains shown) VH: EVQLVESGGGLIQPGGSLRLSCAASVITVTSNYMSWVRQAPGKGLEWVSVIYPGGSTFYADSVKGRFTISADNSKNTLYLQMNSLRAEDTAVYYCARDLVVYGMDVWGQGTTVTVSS VL: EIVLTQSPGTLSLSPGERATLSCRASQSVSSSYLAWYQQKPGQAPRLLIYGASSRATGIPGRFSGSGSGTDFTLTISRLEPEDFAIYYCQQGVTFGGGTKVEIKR
31
